// provenance: the Deep4Chem optical property database

I'd appreciate it if you could supply absorption maximum values for the items below.
experiment: solvent given as SMILES; conditions: in ClCCl
Unit nm implied. Number only.

Record request: absorption maximum value, item CC(C)(C)C1CCC(=CS/C=C/c2ccc(/C=C/SC=C3CCC(C(C)(C)C)CC3)cc2)CC1 (configuration not stated)
351

Record request: absorption maximum value, item `COc1ccc2c(CC(=O)NN)coc2c1`
287

Record request: absorption maximum value, item `O=c1c2ccccc2n(-c2ccc(-c3ccc(N(c4ccccc4)c4ccccc4)cc3)cc2)c2ccccc12`
394

Record request: absorption maximum value, item `CCOC(=O)c1c(-c2c(Cl)c3ccccc3oc2=O)nn(-c2ccc(Br)cc2)c1C(=O)OCC`
322

Record request: absorption maximum value, item `Cc1cc(C)c(C2=C3C=C(/C=C/C(=O)OC(C)(C)C)C=[N+]3[B-](F)(F)n3c2ccc3N2CCOCC2)c(C)c1`
497

Record request: absorption maximum value, item `CCCCn1c2ccc(C#N)cc2c2cc(C#N)cc(-c3ccc(N(c4ccccc4)c4ccccc4)cc3)c21`
352

Record request: absorption maximum value, item `Cc1ccccc1-c1c2ccc(=[N+]3CCOCC3)cc-2oc2cc(N3CCOCC3)ccc12`
554

Record request: absorption maximum value, item `CCCCN(CCCC)c1ccc(C#Cc2cc(C#Cc3ccc([N+](=O)[O-])cc3)c(C#Cc3ccc([N+](=O)[O-])cc3)cc2C#Cc2ccc(N(CCCC)CCCC)cc2)cc1`
417

Record request: absorption maximum value, item `O=C1c2ccccc2-c2c(-c3ccccc3O)[nH]c(=O)n21`
394

Record request: absorption maximum value, item `CC(C)(C)c1ccc2c(c1)c1cc(C(C)(C)C)ccc1n2-c1ccc(C#Cc2ccc3c4ccc(C#Cc5ccc(C=O)cc5)cc4n(-c4ccc(C(F)(F)F)cc4)c3c2)cc1`
377

Record request: absorption maximum value, item `CN(C)c1cc(-c2ccc(C#Cc3cc[n+](C)cc3)cc2)cc2ccccc12`
366

Record request: absorption maximum value, item `Oc1c(-c2cccs2)cccc1-c1nc2ccccc2s1`
356

Record request: absorption maximum value, item `c1ccc2c(c1)c1ccccc1c1ncncc21`
346

Record request: absorption maximum value, item `O=C(c1sc(-c2ccc(-c3cc(-c4cccs4)c(C(=O)N4CCOCC4)s3)s2)cc1-c1cccs1)N1CCOCC1`
379

Record request: absorption maximum value, item `CC1=C(C)C(c2c(C)c(C)c3n2[B-](F)(F)[N+]2=C(C)C(C)=C(C)C2=C3)=[N+]2C1=Cc1c(C)c(C)c(C)n1[B-]2(F)F`
562

Record request: absorption maximum value, item `c1ccc(N(c2ccccc2)c2ccc3ccc4c(N(c5ccccc5)c5ccccc5)ccc5ccc2c3c54)cc1`
423

Record request: absorption maximum value, item `c1ccc(-n2c3ccccc3c3cc(-n4ccc5cc(-c6cccc7c6-c6ccccc6C7(c6ccccc6)c6ccccc6)ccc54)ccc32)cc1`
325
